- target.under.test: P2X7 (Homo sapiens (Human))
- protocol.details: P2X7 antagonism in human peripheral blood mononuclear cells (PBMCs), IL-1β release
- Type: cell-based
- details: P2X7; Table 3 (additional runs); 10 μM compound; read-out: PBMC 10 μM (% control)
reported.property: remaining activity at 10 µM (%)

(a) C[C@H]1Cn2c(nnc2-c2csc(C(F)(F)F)n2)C(=O)N1Cc1cccc(C(F)(F)F)c1Cl [Example 38]
(b) O=C1c2nnc(-c3ccccn3)n2CCN1Cc1cccc(Cl)c1Cl [Example 8]
(c) C[C@H]1Cn2c(-c3cccnn3)nnc2-c2nnc(-c3cccc(C(F)(F)F)c3Cl)n21 [Example 108]
(d) Cc1ccc(-c2nnc3n2C[C@H](C)n2c(-c4cccc(C(F)(F)F)c4Cl)nnc2-3)s1 [Example 121]
Please give the order of these compounds when sorted by remaining activity at 10 µM, largest value leading. I'd appreciate it if you listed the labels in the requested order. a, d, c, b
(a: 19.8%, d: 9.3%, c: -0.5%, b: -10.6%)

* * *

- target.under.test: UniProt:Q99572
- protocol.details: P2X7 antagonism in human peripheral blood mononuclear cells (PBMCs), IL-1β release
- Format: cell-based
- details: P2X7; Table 3 (additional runs); 10 μM compound; read-out: PBMC 10 μM (% control)
reported.property: remaining activity at 10 µM (%)

Field: example entries. Status: answers known.
O=C1c2nnc(-c3ccc(F)cn3)n2CC(C2CC2)N1Cc1cccc(C(F)(F)F)c1Cl (racemic) :: 20.8
C[C@H]1Cn2c(nnc2-c2cnccn2)C(=O)N1Cc1ccccc1Cl :: 8.4
C[C@H]1Cn2c(-c3ccc(F)cn3)nnc2-c2nnc(-c3cccc(Cl)c3Cl)n21 :: -0.5

(a) C[C@H]1Cn2c(nnc2-c2cnccn2)C(=O)N1Cc1c(Cl)cccc1Cl
(b) CC1Cn2c(nnc2-c2cnccn2)C(=O)N1Cc1cccc(C(F)(F)F)c1Cl (racemic)
Between a and b , which one shows the larger remaining activity at 10 µM value? # reply format: chosen label a

* * *

- target.under.test: P2X7 (Homo sapiens (Human), UniProt Q99572)
- Sequence (Q99572 whole entry): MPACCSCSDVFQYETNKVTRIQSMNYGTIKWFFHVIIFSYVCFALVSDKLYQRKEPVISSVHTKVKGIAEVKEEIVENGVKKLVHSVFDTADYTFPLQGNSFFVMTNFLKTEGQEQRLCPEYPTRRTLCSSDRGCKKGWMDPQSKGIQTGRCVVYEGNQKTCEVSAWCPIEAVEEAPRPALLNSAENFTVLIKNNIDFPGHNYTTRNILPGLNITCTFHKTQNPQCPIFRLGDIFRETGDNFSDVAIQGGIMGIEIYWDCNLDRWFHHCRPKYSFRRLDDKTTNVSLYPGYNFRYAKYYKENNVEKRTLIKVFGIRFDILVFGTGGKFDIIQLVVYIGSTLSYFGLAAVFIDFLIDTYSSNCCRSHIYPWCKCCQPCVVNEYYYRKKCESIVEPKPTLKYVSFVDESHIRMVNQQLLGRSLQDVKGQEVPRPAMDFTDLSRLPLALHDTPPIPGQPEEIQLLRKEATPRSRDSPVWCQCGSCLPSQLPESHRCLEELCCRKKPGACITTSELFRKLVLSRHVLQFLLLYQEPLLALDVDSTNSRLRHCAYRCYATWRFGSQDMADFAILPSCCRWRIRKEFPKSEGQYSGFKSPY
- protocol.details: P2X7 antagonism in human peripheral blood mononuclear cells (PBMCs), IL-1β release
- Assay type: cell-based
- details: P2X7; Table 3 (additional runs); 10 μM compound; read-out: PBMC 10 μM (% control)
reported.property: remaining activity at 10 µM (%)

C[C@H]1Cn2c(-c3cc(C(F)(F)F)ccn3)nnc2-c2nnc(-c3cccc(C(F)(F)F)c3Cl)n21 :: 15

(I) C[C@H]1Cn2c(-c3cccnc3)nnc2-c2nnc(-c3cccc(C(F)(F)F)c3Cl)n21
(II) C[C@H]1Cn2c(nnc2C2CCOCC2)C(=O)N1Cc1cccc(C(F)(F)F)c1Cl
(III) C[C@H]1Cn2c(nnc2-c2cc[nH]n2)C(=O)N1Cc1cccc(C(F)(F)F)c1Cl
Order the entries by their reported remaining activity at 10 µM, beginning at the minimum. I'd appreciate it if you listed the labels in the requested order. III, I, II
